Listed here: items and their measured growth.
Tested on: RPMI-8226 leukemia
assay-summary: NCI-60 one-dose screen, 48 h (100 = growth as untreated, 0 = no growth, -100 = all killed)
condition-description: 10 µM unless noted
The panel holds about 83,000 compounds, 20% with a hit somewhere; the sample as a whole holds those more often.
outcome-measure: growth (%)

chemical-smiles: Cc1ccc(C(=O)Nc2ccc(CN3CCN(C)CC3)c(C(F)(F)F)c2)cc1C#Cc1cnc(N)cc1C#N
value: -24.4
--
chemical-smiles: COc1ccc2c(c1)c(C(=O)c1nc(-c3cn(C)c4ccccc34)no1)cn2C
value: 93.6
--
chemical-smiles: O=C1CCCCN1CCCCC#Cc1cccc(C#Cc2cccnc2)c1
value: 49.7
--
chemical-smiles: Nc1c(C(=O)Nc2ccncc2)sc2nc3c(cc12)CCCCCCCC3
value: -49
--
chemical-smiles: CCCCCCCCCCCCCCCCCCn1cc(COc2ccc(C=O)cc2)nn1
value: 95.3
--
chemical-smiles: Nn1c(-c2ccc(Cl)cc2)nc2c(-c3ccc(Cl)cc3)nc3ccc(Cl)cc3c2c1=O
value: 30.1
--
chemical-smiles: Clc1cccc(Nc2ncnc3ccc(-c4cncc(-n5cnnn5)c4)cc23)c1
value: 35.5
--
chemical-smiles: Cc1ccc(/C=C2\COc3ccc(O)c(O)c3C2=O)cc1
value: -12.6
--
chemical-smiles: O=C(CCCCCCCCC(=O)N/N=C\c1ccccc1O)N/N=C\c1ccccc1O
value: 32.8
--
chemical-smiles: O=C(Nc1ccc(F)cc1)c1cc2cc(Nc3nc(-c4ccccc4)nc4ccccc34)ccc2oc1=O
value: 97.9

====

Tested on: KM12 colon
assay-summary: NCI-60 one-dose screen, 48 h (100 = growth as untreated, 0 = no growth, -100 = all killed)
condition-description: 10 µM unless noted
About 83,000 compounds went through this panel and 20% of them were active in at least one assay; those are over-represented in the sample as a whole.

molecule: O=C1/C(=C/c2cn(-c3ccccc3)nc2-c2ccccc2)SC(=S)N1c1ccc(Cl)cc1
growth (%): 60.5
//
molecule: CC12OC(CC(O)C1O)n1c3ccccc3c3c4c(c5c6ccccc6n2c5c31)C(=O)N(CCN1CCOCC1)C4=O (centres undefined)
growth (%): 14.6
//
molecule: COc1ccc(C(c2cc(OC)c(OC)c(OC)c2)n2ccnc2)cc1O (centres undefined)
growth (%): 17
//
molecule: COCCn1cc(-c2csc(-c3cn(C)c4ccc(F)cc34)n2)c2cccnc21
growth (%): 40
//
molecule: CCCCSc1ccc2nc(-c3ccc(OCCCN=C(N)N)cc3)cn2c1
growth (%): 34.3
//
molecule: O=C(NNc1ccccc1)c1ncc[nH]1
growth (%): 29.5
//
molecule: [Cu+].[NH-][C@H]1C[N-]C(=O)[C@H]([C@H]2CCN=C(N)N2)[N-]C(=O)/C(=C\NC(N)=O)[N-]C(=O)[C@H](CNC(=O)C[C@@H](N)CCCN)[N-]C(=O)[C@H](CO)[N-]C1=O
growth (%): 101
//
molecule: CN1CCN(c2ccc(/C=C/C(=O)c3ccc(O)cc3)cc2)CC1
growth (%): 101
//
molecule: O=[N+]([O-])c1ccc2[nH]c3nccc(NCc4cccc(Cl)c4)c3c2c1
growth (%): 84.7

====

Tested on: OVCAR-3 ovarian
assay-summary: NCI-60 one-dose screen, 48 h (100 = growth as untreated, 0 = no growth, -100 = all killed)
condition-description: 10 µM unless noted
The panel holds about 83,000 compounds, 20% with a hit somewhere; the sample as a whole holds those more often.
Documented growth across a set of compounds

compound: CC(C)=CCc1cc(O)c(O)c2oc3cc(O)cc(O)c3c(=O)c12
growth, %: 67.4

compound: O=C1C(c2c[nH]c3ccccc23)=C(c2coc3cc(Br)ccc23)C(=O)N1O
growth, %: 102

compound: CCNC(=S)n1nc(SC)c(C(=O)OCC)c1N
growth, %: 97.7

compound: CCCCCCNC(=O)Oc1ccc(/C(=C(/CC)Cc2ccccc2)c2ccc(OCCCN(C)C)cc2)cc1
growth, %: 95.3

compound: N=C(N)c1ccc(-c2ccc(-c3ccc(Cl)c(Cl)c3)s2)cc1
growth, %: -87.9

compound: Cn1cc(-c2csc(-c3c[nH]c4ccc(F)cc34)n2)c2cnccc21
growth, %: -73.2

compound: Brc1ccc(/C=C(/C2=NCCN2)n2ccc3ccccc32)cc1
growth, %: 77.6

compound: C/C=C(\C)C(=O)N[C@H]1CC[C@]2(C)C3CC[C@@]4(C)C(CC[C@@H]4C(C)N(C)C)C3CCC2[C@H]1OC(C)=O (stereo not given in full)
growth, %: -53.9

compound: Cn1cc(C2=C(c3cccc4ccccc34)C(=O)NC2=O)c2cc(Br)ccc21
growth, %: 104

compound: Nc1ncc(-c2ccc3ncnc(N4CCc5ccc(Cl)cc54)c3c2)cc1C(F)(F)F
growth, %: 10.8

====

Tested on: OVCAR-4 ovarian
assay-summary: NCI-60 one-dose screen, 48 h (100 = growth as untreated, 0 = no growth, -100 = all killed)
condition-description: 10 µM unless noted
This is part of a sample that, as a whole, favours compounds with a hit. Of some 83,000 tested, about 20% had one in any assay.
outcome-measure: growth (%)

compound: COc1cc(-c2nc3occn3c2-c2ccnc(NCCCNS(=O)(=O)c3ccc(O)cc3)n2)ccc1F
measure-unit: %
value: 129

compound: COc1cccc(C2C(C#N)=C(N)Oc3cc(OCCCCCC[P+](c4ccccc4)(c4ccccc4)c4ccccc4)ccc32)c1 (centres undefined)
measure-unit: %
value: 2.58

compound: [2H]C([2H])([2H])Oc1cc(F)ccc1/C=C/C(=O)/C=C(/C=C/c1ccc(F)cc1OC([2H])([2H])[2H])OB(F)F
measure-unit: %
value: 17.5

compound: O=C(CN1C(=O)S/C(=C\C(Cl)=C\c2ccccc2)C1=O)NCCCn1ccnc1
measure-unit: %
value: 43.1

compound: CCOc1nc(-c2ccccc2)cc2c(O)c(C(=O)N/N=C/c3ccc(N(C)C)cc3)[nH]c(=O)c12
measure-unit: %
value: 148

compound: COc1ccc(C(=O)N/N=C/c2ccc(O)cc2O)cc1Nc1ccnc(C(F)(F)F)c1
measure-unit: %
value: 31.7

compound: CONC1=Nc2cc(NC(N)=NCc3ccccc3)c(N(C)C3CCCCC3)cc2OC1
measure-unit: %
value: 73.8

compound: Nn1c(-c2ccc(Cl)cc2)nc2c(-c3ccc(Cl)cc3)nc3ccc(Cl)cc3c2c1=O
measure-unit: %
value: -78.1

compound: O=C1c2cccc3cccc(c23)C(=O)N1N1C(=O)c2cccc3c(N4CCNCC4)ccc(c23)C1=O
measure-unit: %
value: 116

compound: CCOc1ccccc1NC(=O)c1cc2ccccc2cc1O
measure-unit: %
value: 61

compound: N#Cc1ccccc1-c1ccc(Cn2c(-c3cscn3)nc3c(Cl)cccc32)cc1
measure-unit: %
value: 62

compound: CCCCSc1ccc2nc(-c3ccc(OCCCN=C(N)N)cc3)cn2c1
measure-unit: %
value: 96.8

compound: Cc1ccc(C(=O)N(CCCN)[C@@H](c2nc3cc(Cl)ccc3c(=O)n2Cc2ccccc2)C(C)C)cc1
measure-unit: %
value: 33.3

compound: Fc1ccccc1-c1cnn2cc(-c3ccccc3)cnc12
measure-unit: %
value: 98.5

compound: CCCCn1c(C(=O)c2c[nH]c3ccccc23)n[nH]c1=S
measure-unit: %
value: 92.4

compound: CCN(CC)CCCN1C(=O)c2c(c(C)c3c(oc4cc(OC)ccc43)c2C)C1=O
measure-unit: %
value: 111

compound: Cc1ccc(S(=O)(=O)OC[C@@]2(C)CC[C@]3(C)CC[C@]4(C)C(=C3C2)C=C[C@@H]2[C@@]3(C)CCCNC(C)(C)[C@@H]3CC[C@]24C)cc1
measure-unit: %
value: -40.5

compound: Cc1nc2sc(C(=O)Nc3cccc(Cl)c3C)c(N)c2cc1C(O)c1ccccc1 (centres undefined)
measure-unit: %
value: 55.6

compound: CCC(=C(c1ccc(OCCCN(C)C)cc1)c1ccc(OCCCN(C)C)cc1)c1ccc(Cl)cc1
measure-unit: %
value: -85.8

====

Listing: growth of selected molecules
System: NCI-H460 lung
assay-summary: NCI-60 one-dose screen, 48 h (100 = growth as untreated, 0 = no growth, -100 = all killed)
condition-description: 10 µM unless noted
Compounds without any hit were thinned out: in the full panel of roughly 83,000, 20% have a hit.

molecule: O=C1/C(=C/c2ccc(F)c(F)c2)CN(C(=O)C(Cl)Cl)C/C1=C\c1ccc(F)c(F)c1
growth, %: -71.9
//
molecule: N#Cc1cc(-c2ccnc(Nc3ccc(NC(=O)CCl)cc3)n2)ccc1N1CCCC1
growth, %: -35.9
//
molecule: Cn1cc(C2=C(c3cccc4ccccc34)C(=O)NC2=O)c2cc(Br)ccc21
growth, %: 104
//
molecule: COC1=CC(=O)C(OC)=C(O)C1=O
growth, %: 106
//
molecule: C=C(CNCCc1ccc(O)cc1)[C@@H]1CC[C@]2(CO)CC[C@]3(C)[C@H](CC[C@@H]4[C@@]5(C)CCC(NCCc6ccc(O)cc6)C(C)(C)[C@@H]5CC[C@]43C)[C@@H]12 (some centres not stated)
growth, %: -79.4
//
molecule: Cc1n(Cc2ccc3ccccc3c2)c(Cl)c(Cl)[n+]1Cc1ccc2ccccc2c1
growth, %: 33.5
//
molecule: CC1=CC=C(NC(=O)/C=C/c2ccccc2)CC1Nc1nccc(-c2cccnc2)n1 (configuration not stated)
growth, %: 66.9
